Give viability, T/C for every item shown.
Test system: 885724-159-R-J1-PDC KRAS PDC multicell spheroid viability;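 further: spheroids exposed to agents for 7 days before readout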
protocol: Anticancer human tumor 885724-159-R-J1-PDC patient-derived pancreatic adenocarcinoma cell line growth inhibition [KRAS2]
run_conditions: compound 0.316 µM; stronger effect = lower value
Text: Multicellular complex tumor spheroid response to RAS pathway inhibitors in combination with a targeted agents in patient-derived cell lines with oncogenic KRAS variants from multiple cancer types A high-throughput screen of multi-cell type tumor spheroids was designed to identify active combinations of targeted small molecules and KRAS pathway inhibitors. […] Compounds. […] If the clinical Cmax for an agent had not been determined, the highest concentration tested was 10 microM. […]

Here are 5 molecules together with their reported answers.
• CC1(C)CCC(CN2CCN(c3ccc(C(=O)NS(=O)(=O)c4ccc(NCC5CCOCC5)c([N+](=O)[O-])c4)c(Oc4cnc5[nH]ccc5c4)c3)CC2)=C(c2ccc(Cl)cc2)C1 = 100% [middle of 5 runs]
• COC(=O)c1ccc2c(C(=Nc3ccc(N(C)C(=O)CN4CCN(C)CC4)cc3)c3ccccc3)c(O)[nH]c2c1 = 98.2% [middle of 5 runs]
• COc1cc(Nc2ncc3c(n2)-c2ccc(Cl)cc2C(c2c(F)cccc2OC)=NC3)ccc1C(=O)O = 88.7% [middle of 5 runs]
• C=CC(=O)N1CCN(c2nc(=O)n(-c3c(C)ccnc3C(C)C)c3nc(-c4c(O)cccc4F)c(F)cc23)C(C)C1 (stereo not drawn) = 107% [middle of 15 runs]
• COc1cc2nccc(Oc3ccc(NC(=O)C4(C(=O)Nc5ccc(F)cc5)CC4)cc3)c2cc1OC = 110% [middle of 5 runs]

Kindly give each listed record's viability, T/C.
1. CCNC(=O)CC1N=C(c2ccc(Cl)cc2)c2cc(OC)ccc2-n2c(C)nnc21 (stereo not drawn)
2. COc1cc(OC)cc(N(CCNC(C)C)c2ccc3ncc(-c4cnn(C)c4)nc3c2)c1
3. CNCc1ccccc1-c1csc(C(C)Nc2nc(C)nc3cc(OC)c(OC)cc23)c1 (stereo not drawn)
4. CCN1CCN(Cc2ccc(Nc3ncc(F)c(-c4cc(F)c5nc(C)n(C(C)C)c5c4)n3)nc2)CC1

A:
1. 78.4% [middle of 5 runs]
2. 109% [middle of 5 runs]
3. 101% [middle of 15 runs]
4. 92.5% [middle of 5 runs]

Kindly give each listed record's viability, T/C.
1. CC1COCCN1c1cc(-c2ccnn2C)c2ccnc(-c3ccn[nH]3)c2n1 (stereo not drawn)
2. CC(C)NCC(C(=O)N1CCN(c2ncnc3c2C(C)CC3O)CC1)c1ccc(Cl)cc1 (stereo not drawn)
3. O=C(c1cc(Cc2n[nH]c(=O)c3ccccc23)ccc1F)N1CCN(C(=O)C2CC2)CC1
4. C=CC(=O)N1CCN(c2nc(OCC3CCCN3C)nc3c2CCN(c2cccc4cccc(C)c24)C3)CC1CC#N (stereo not drawn)

A:
1. 62.3% [middle of 5 runs]
2. 75.3% [middle of 5 runs]
3. 105% [middle of 5 runs]
4. 94.9% [middle of 17 runs]
